In this section we review reported MRT values for a set of compounds.
experiment: Mean residence time in po dosed Sprague-Dawley rat; type: ADME, organism-based; details: in vivo
Entry rule: numbers only, all in h.

entrySmiles: CN(C(=O)N1CCC(CN2C(=O)Nc3ccc(Cl)cc3S2(=O)=O)CC1)C1CCCCCC1
MRT / h: 4.24

Consider the additional compound presented here.
Supply MRT value. Item: O=C(c1cccc(CN2C(=O)Nc3ccc(Cl)cc3S2(=O)=O)c1)N(C1CCCCCC1)C1CC1
4.02

====

In this section we review reported AUC(0-t) values for a set of compounds.
assay: AUC (0 to t) in po dosed Sprague-Dawley rat; type: ADME, organism-based; conditions: plasma
Entry rule: numbers only, all in ng·h/mL.

entrySmiles: O=C(c1cccc(CN2C(=O)Nc3ccc(Cl)cc3S2(=O)=O)c1)N(C1CCCCCC1)C1CC1
testReadout: AUC(0-t)
assayResult: 15.5

Consider the additional compound presented here.
Supply AUC(0-t) value. Item: CN(C(=O)N1CCC(CN2C(=O)Nc3ccc(Cl)cc3S2(=O)=O)CC1)C1CCCCCC1
173

====

target: 11-beta-hydroxysteroid dehydrogenase 1 (Mus musculus); assay: Inhibition of mouse 11beta-HSD1 expressed in HEK293 cells assessed as [3H]cortisol production after 60 mins by SPA; assay type: cell-based
Sequence (P50172 whole entry): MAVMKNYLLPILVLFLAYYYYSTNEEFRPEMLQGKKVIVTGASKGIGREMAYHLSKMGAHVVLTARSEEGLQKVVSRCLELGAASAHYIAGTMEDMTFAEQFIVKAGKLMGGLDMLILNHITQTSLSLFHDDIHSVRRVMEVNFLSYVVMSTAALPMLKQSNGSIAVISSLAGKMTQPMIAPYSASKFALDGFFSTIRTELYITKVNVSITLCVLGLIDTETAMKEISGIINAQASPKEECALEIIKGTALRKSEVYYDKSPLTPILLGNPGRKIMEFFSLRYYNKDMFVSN
testReadout: EC50 (µM)
Entry rule: numbers only, all in µM.

Consider the following illustrative entries.
compound: CN(C(=O)N1CCC(CN2C(=O)Nc3ccc(Cl)cc3S2(=O)=O)CC1)C1C2CC3CC(C2)CC1C3 (stereo not drawn)
assayResult: 0.002

compound: O=C(NC12CC3CC(CC(C3)C1)C2)c1ccc(CN2C(=O)Nc3ccc(Cl)cc3S2(=O)=O)cc1
assayResult: 0.014

compound: O=C(NC1CCCCCCC1)c1ccc(CN2C(=O)Nc3ccc(Cl)cc3S2(=O)=O)cc1
assayResult: 0.18

compound: O=C(N1CCC(CN2C(=O)Nc3ccc(Cl)cc3S2(=O)=O)CC1)N(C1CCCCC1)C1CC1
assayResult: 0.037

compound: CN(C(=O)N1CCC(CN2C(=O)Nc3ccc(Cl)cc3S2(=O)=O)CC1)C1CCCCCC1
assayResult: 0.00041

Supply EC50 value. Item: CC1(C)[C@@H](O[C@H]2O[C@H](C(=O)O)[C@@H](O)[C@H](O)[C@H]2O[C@@H]2O[C@H](C(=O)O)[C@@H](O)[C@H](O)[C@H]2O)CC[C@]2(C)[C@H]3C(=O)C=C4[C@@H]5C[C@@](C)(C(=O)O)CC[C@]5(C)CC[C@@]4(C)[C@]3(C)CC[C@@H]12
0.008

Supply EC50 value. Item: O=C(c1ccc(CN2C(=O)Nc3ccc(Cl)cc3S2(=O)=O)cc1)N(C1CCCCC1)C1CC1
0.185

Supply EC50 value. Item: CN(C(=O)c1ccc(CN2C(=O)Nc3ccc(Cl)cc3S2(=O)=O)cc1)C12CC3CC(CC(C3)C1)C2
0.055

====

target: 11-beta-hydroxysteroid dehydrogenase 1 (Mus musculus); assay: Inhibition of mouse 11beta-HSD1 expressed in HEK293 cells assessed as [3H]cortisol production after 60 mins by SPA
pEC50: −log10 of the molar value.
Decision: pEC50 compared against 7; not below it gives met, below it gives not met.

Some solved entries appear below for comparison.
entrySmiles: CN(C(=O)c1ccc(CN2C(=O)Nc3ccc(Cl)cc3S2(=O)=O)cc1)C1CCCCCC1
testSystem: 11-beta-hydroxysteroid dehydrogenase 1 (Mus musculus)
labelValue: not met

entrySmiles: O=C(c1cccc(CN2C(=O)Nc3ccc(Cl)cc3S2(=O)=O)c1)N(C1CCCCC1)C1CC1
testSystem: 11-beta-hydroxysteroid dehydrogenase 1 (Mus musculus)
labelValue: met

entrySmiles: O=C(NC1CCCCC1)c1ccc(CN2C(=O)Nc3ccc(Cl)cc3S2(=O)=O)cc1
testSystem: 11-beta-hydroxysteroid dehydrogenase 1 (Mus musculus)
labelValue: not met

Is the recorded value of pEC50 equal to or greater than 7 for this molecule? O=C(N1CCC(CN2C(=O)Nc3ccc(Cl)cc3S2(=O)=O)CC1)N(C1CCCCCC1)C1CC1
met

====

In this section we review reported pEC50 values for a set of compounds.
molecular target: 11-beta-hydroxysteroid dehydrogenase 1 (Mus musculus); experiment: Inhibition of mouse 11beta-HSD1 expressed in HEK293 cells assessed as [3H]cortisol production after 60 mins by SPA
Reminder that pEC50 means the negative base-10 logarithm of the concentration expressed in mol/L.

Consider the following illustrative entries.
compound: CN(C(=O)c1cccc(CN2C(=O)Nc3ccc(Cl)cc3S2(=O)=O)c1)C1C2CC3CC(C2)CC1C3 (stereo not given)
assayResult: 7.16
--
compound: CN(C(=O)c1cccc(CN2C(=O)Nc3ccc(Cl)cc3S2(=O)=O)c1)C1CCCCCC1
assayResult: 6.40
--
compound: O=C(NC1CCCCCC1)N1CCC(CN2C(=O)Nc3ccc(Cl)cc3S2(=O)=O)CC1
assayResult: 7.77
--
compound: O=C(NC1CCCCCC1)c1ccc(CN2C(=O)Nc3ccc(Cl)cc3S2(=O)=O)cc1
assayResult: 6.84

Consider the additional compound presented here.
Supply pEC50 value. Item: O=C(c1cccc(CN2C(=O)Nc3ccc(Cl)cc3S2(=O)=O)c1)N(C1CCCCCC1)C1CC1
6.59

====

In this section we review reported EC50 values for a set of compounds.
biological target: 11-beta-hydroxysteroid dehydrogenase 1 (Homo sapiens, UniProt P28845); experiment: Inhibition of human 11beta-HSD1 expressed in HEK293 cells assessed as [3H]cortisol production after 60 mins by SPA
Sequence (P28845 whole entry): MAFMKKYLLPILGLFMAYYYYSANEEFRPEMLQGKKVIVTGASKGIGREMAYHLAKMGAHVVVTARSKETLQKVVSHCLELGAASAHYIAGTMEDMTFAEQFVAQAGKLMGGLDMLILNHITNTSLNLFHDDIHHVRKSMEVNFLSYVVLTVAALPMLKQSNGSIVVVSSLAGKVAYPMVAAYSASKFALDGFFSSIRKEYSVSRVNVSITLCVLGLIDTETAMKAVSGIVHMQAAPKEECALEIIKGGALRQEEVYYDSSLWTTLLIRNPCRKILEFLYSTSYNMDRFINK
Entry rule: numbers only, all in nM.

Consider the following illustrative entries.
entrySmiles: O=C(NC12CC3CC(CC(C3)C1)C2)c1ccc(CN2C(=O)Nc3ccc(Cl)cc3S2(=O)=O)cc1
testSystem: 11-beta-hydroxysteroid dehydrogenase 1 (Homo sapiens, UniProt P28845)
EC50 [nM]: 47
//
entrySmiles: O=C(c1cccc(CN2C(=O)Nc3ccc(Cl)cc3S2(=O)=O)c1)N(C1CCCCCC1)C1CC1
testSystem: 11-beta-hydroxysteroid dehydrogenase 1 (Homo sapiens, UniProt P28845)
EC50 [nM]: 1
//
entrySmiles: O=C(NC1CCCCCCC1)c1ccc(CN2C(=O)Nc3ccc(Cl)cc3S2(=O)=O)cc1
testSystem: 11-beta-hydroxysteroid dehydrogenase 1 (Homo sapiens, UniProt P28845)
EC50 [nM]: 443
//
entrySmiles: CC1(C)[C@@H](O[C@H]2O[C@H](C(=O)O)[C@@H](O)[C@H](O)[C@H]2O[C@@H]2O[C@H](C(=O)O)[C@@H](O)[C@H](O)[C@H]2O)CC[C@]2(C)[C@H]3C(=O)C=C4[C@@H]5C[C@@](C)(C(=O)O)CC[C@]5(C)CC[C@@]4(C)[C@]3(C)CC[C@@H]12
testSystem: 11-beta-hydroxysteroid dehydrogenase 1 (Homo sapiens, UniProt P28845)
EC50 [nM]: 10
//
entrySmiles: O=C(N1CCC(CN2C(=O)Nc3ccc(Cl)cc3S2(=O)=O)CC1)N(C1CCCCC1)C1CC1
testSystem: 11-beta-hydroxysteroid dehydrogenase 1 (Homo sapiens, UniProt P28845)
EC50 [nM]: 121
//
entrySmiles: O=C(NC1CCCCC1)c1ccc(CN2C(=O)Nc3ccc(Cl)cc3S2(=O)=O)cc1
testSystem: 11-beta-hydroxysteroid dehydrogenase 1 (Homo sapiens, UniProt P28845)
EC50 [nM]: 686
//
entrySmiles: O=C(c1ccc(CN2C(=O)Nc3ccc(Cl)cc3S2(=O)=O)cc1)N(C1CCCCC1)C1CC1
testSystem: 11-beta-hydroxysteroid dehydrogenase 1 (Homo sapiens, UniProt P28845)
EC50 [nM]: 60
//
entrySmiles: CN(C(=O)c1ccc(CN2C(=O)Nc3ccc(Cl)cc3S2(=O)=O)cc1)C1CCCCCC1
testSystem: 11-beta-hydroxysteroid dehydrogenase 1 (Homo sapiens, UniProt P28845)
EC50 [nM]: 90

Supply EC50 value. Item: O=C(N1CCC(CN2C(=O)Nc3ccc(Cl)cc3S2(=O)=O)CC1)N(C1CCCCCC1)C1CC1
517

====

assay: Tmax in po dosed Sprague-Dawley rat; assay type: ADME, organism-based; conditions: in vivo
In this section we review reported Tmax values for a set of molecules.
Entry rule: numbers only, all in h.

entrySmiles: O=C(c1cccc(CN2C(=O)Nc3ccc(Cl)cc3S2(=O)=O)c1)N(C1CCCCCC1)C1CC1
testReadout: Tmax
assayResult: 2.3

Supply Tmax value. Item: CN(C(=O)N1CCC(CN2C(=O)Nc3ccc(Cl)cc3S2(=O)=O)CC1)C1CCCCCC1
2

====

molecular target: 11-beta-hydroxysteroid dehydrogenase 1 (Homo sapiens); assay: Inhibition of human 11beta-HSD1 expressed in HEK293 cells assessed as [3H]cortisol production after 60 mins by SPA
pEC50: −log10 of the molar value.
Decision: pEC50 compared against 7; not below it gives Satisfied, below it gives Not satisfied.

compound: CN(C(=O)c1cccc(CN2C(=O)Nc3ccc(Cl)cc3S2(=O)=O)c1)C1CCCCCC1
labelValue: Satisfied

compound: O=C(c1ccc(CN2C(=O)Nc3ccc(Cl)cc3S2(=O)=O)cc1)N(C1CCCCCC1)C1CC1
labelValue: Satisfied

compound: CN(C(=O)c1cccc(CN2C(=O)Nc3ccc(Cl)cc3S2(=O)=O)c1)C1C2CC3CC(C2)CC1C3 (centres undefined)
labelValue: Satisfied

compound: CN(C(=O)N1CCC(CN2C(=O)Nc3ccc(Cl)cc3S2(=O)=O)CC1)C1CCCCCC1
labelValue: Satisfied

compound: O=C(c1cccc(CN2C(=O)Nc3ccc(Cl)cc3S2(=O)=O)c1)N(C1CCCCC1)C1CC1
labelValue: Satisfied

Is the recorded value of pEC50 equal to or greater than 7 for this compound? O=C(NC1CCCCCC1)N1CCC(CN2C(=O)Nc3ccc(Cl)cc3S2(=O)=O)CC1
Not satisfied

Is the recorded value of pEC50 equal to or greater than 7 for this compound? O=C(NC1CCCCCC1)c1ccc(CN2C(=O)Nc3ccc(Cl)cc3S2(=O)=O)cc1
Not satisfied
